target: JAK1(JH1domain-catalytic) (Homo sapiens, UniProt P23458); construct: JAK1(JH1domain-catalytic); purchased Eurofins DiscoverX KINOMEscan (scanTK); experiment: KINOMEscan ScanTK; assay type: binding; details: read-out: %Control @1000nM
Sequence (P23458 875-1154 limits assumed): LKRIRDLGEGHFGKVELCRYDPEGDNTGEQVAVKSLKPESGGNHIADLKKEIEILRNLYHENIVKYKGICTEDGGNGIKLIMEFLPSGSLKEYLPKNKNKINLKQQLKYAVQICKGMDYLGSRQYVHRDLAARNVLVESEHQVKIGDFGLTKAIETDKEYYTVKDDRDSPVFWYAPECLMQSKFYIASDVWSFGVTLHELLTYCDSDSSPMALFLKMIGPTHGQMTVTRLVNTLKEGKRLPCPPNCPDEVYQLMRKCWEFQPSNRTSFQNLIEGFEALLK
OBSERVABLE: remaining binding at 1 µM (%)
Use % as the unit, but write only the number.

Prompt line: Give the measured remaining binding at 1 µM for CNC(=O)c1cnc(S(C)(=O)=O)nc1N1CCCC(n2nc(-c3ccc(Oc4ccccc4)cc3)c3c(N)ncnc32)C1 (centres unmarked)
Response line: 100

Prompt line: Give the measured remaining binding at 1 µM for Cc1cnc(S(C)(=O)=O)nc1N1CCCC(n2nc(-c3ccc(Oc4ccccc4)cc3)c3c(N)ncnc32)C1 (centres unmarked)
Response line: 94

Prompt line: Give the measured remaining binding at 1 µM for C=CC(=O)N1CCC[C@@H](n2nc(-c3ccc(Oc4ccccc4)cc3)c3c(N)ncnc32)C1 [Compound 1g, Ibrutinib, reference compound]
Response line: 94

Prompt line: Give the measured remaining binding at 1 µM for "CCOC(=O)c1cnc(S(C)(=O)=O)nc1N1CCC[C@@H](n2nc(-c3ccc(Oc4ccccc4)cc3)c3c(N)ncnc32)C1"
Response line: 100

Prompt line: Give the measured remaining binding at 1 µM for COC(=O)c1cnc(S(C)(=O)=O)nc1N1CCCC(n2nc(-c3ccc(Oc4ccccc4)cc3)c3c(N)ncnc32)C1 (centres unmarked)
Response line: 97
